Reference source for all entries: paper PMC11571108

# assay system: recombinant full-length PfCLK3 (Plasmodium falciparum)
# test summary: TR-FRET protein kinase assay
# Format: biochemical
# condition label: Apparent pIC50 (PfCLK3), [ATP] = Km (5 μM); 15 min preincubation, 2 h incubation
measure name: pIC50
Give bare numbers, as −log10 of the molar value.

Q: Which pIC50 is reported for this compound? CCN(CC)Cc1ccc(OC)c(-c2cc3c(-c4ccc(C(=O)O)c(C(C)C)c4)ccnc3[nH]2)c1
Ans: 8.11

====

# assay system: recombinant full-length PfCLK3 (Plasmodium falciparum, UniProt Q8IIL5)
# Sequence (Q8IIL5 1-699): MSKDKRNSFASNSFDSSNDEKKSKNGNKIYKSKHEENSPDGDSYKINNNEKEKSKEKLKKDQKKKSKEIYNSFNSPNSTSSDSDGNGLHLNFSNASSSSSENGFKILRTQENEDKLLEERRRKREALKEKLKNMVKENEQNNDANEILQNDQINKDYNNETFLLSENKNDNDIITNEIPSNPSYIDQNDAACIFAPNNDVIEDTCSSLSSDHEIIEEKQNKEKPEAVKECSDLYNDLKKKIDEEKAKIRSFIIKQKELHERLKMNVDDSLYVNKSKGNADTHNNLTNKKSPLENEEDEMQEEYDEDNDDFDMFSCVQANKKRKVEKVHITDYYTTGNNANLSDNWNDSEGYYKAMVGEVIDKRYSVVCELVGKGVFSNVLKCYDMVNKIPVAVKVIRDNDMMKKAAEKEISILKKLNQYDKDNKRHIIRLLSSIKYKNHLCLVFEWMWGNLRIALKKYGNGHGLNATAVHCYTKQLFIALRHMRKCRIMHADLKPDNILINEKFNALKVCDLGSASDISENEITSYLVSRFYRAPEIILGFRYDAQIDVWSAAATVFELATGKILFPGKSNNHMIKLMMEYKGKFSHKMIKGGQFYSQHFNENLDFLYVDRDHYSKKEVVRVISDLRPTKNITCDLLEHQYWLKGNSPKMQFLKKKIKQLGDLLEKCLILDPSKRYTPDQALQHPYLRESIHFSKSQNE
# test summary: TR-FRET protein kinase assay
# Assay type: biochemical
# condition label: Apparent pIC50 (PfCLK3), [ATP] = 500 μM; 15 min preincubation, 2 h incubation
measure name: pIC50
One number for each entry, as −log10 of the molar value.

Q: Which pIC50 is reported for this compound? CCN(CC)Cc1ccc(OC)c(-c2cc3c(-c4ccc(C(=O)O)c(C(C)C)c4)ccnc3[nH]2)c1 [Compound 1, TCMDC-135051]
Ans: 7.06

====

# test summary: Microsomal stability
# Assay type: in vitro ADME
# condition label: human, liver microsomes, 0.5 mg/mL microsomes, 37 °C, read-out: HLM t1/2
measure name: half-life at 1 μM

Q: Which half-life at 1 μM is reported for this compound? CCN(CC)Cc1ccc(OC)c(-c2cc3c(-c4ccc(C(=O)O)c(C(C)C)c4)ccnc3[nH]2)c1
Ans: > 3.07 h

====

# assay system: recombinant full-length PfCLK3 (Plasmodium falciparum, UniProt Q8IIL5)
# test summary: TR-FRET protein kinase assay
# Assay type: biochemical
# condition label: Apparent pIC50 (PfCLK3), [ATP] = 3 mM; 15 min preincubation, 2 h incubation
measure name: IC50
State the value with its unit after it.

Q: Which IC50 is reported for this compound? CCN(CC)Cc1ccc(OC)c(-c2cc3c(-c4ccc(C(=O)O)c(C(C)C)c4)ccnc3[nH]2)c1
Ans: 447 nM
